Task for the reader: assign each of the following compounds its reported IC50.
- System: Plasmodium falciparum
- assay.comment: Antiplasmodial activity against Plasmodium falciparum Dd2 assessed as growth inhibition after 72 hrs by SYBR Green I dye based assay
- Assay type: functional, organism-based
- experimental.setup: Dd2, 72 h
Give bare numbers, in µM.

Cn1c(=O)/c(=C/c2ccccc2)[nH]c(=O)/c1=C/c1ccccc1    6.57

Shift focus to the following entry.
Req: What measured IC50 is associated with `C=C1NC(=O)[C@H]([C@H](C)OC)N(C)C1=O` on Plasmodium falciparum?
Resp: 50
